- SYSTEM_UNDER_TEST: Small conductance calcium-activated potassium channel protein 3 (Rattus norvegicus) (UniProt P70605)
- Sequence (P70605 whole entry): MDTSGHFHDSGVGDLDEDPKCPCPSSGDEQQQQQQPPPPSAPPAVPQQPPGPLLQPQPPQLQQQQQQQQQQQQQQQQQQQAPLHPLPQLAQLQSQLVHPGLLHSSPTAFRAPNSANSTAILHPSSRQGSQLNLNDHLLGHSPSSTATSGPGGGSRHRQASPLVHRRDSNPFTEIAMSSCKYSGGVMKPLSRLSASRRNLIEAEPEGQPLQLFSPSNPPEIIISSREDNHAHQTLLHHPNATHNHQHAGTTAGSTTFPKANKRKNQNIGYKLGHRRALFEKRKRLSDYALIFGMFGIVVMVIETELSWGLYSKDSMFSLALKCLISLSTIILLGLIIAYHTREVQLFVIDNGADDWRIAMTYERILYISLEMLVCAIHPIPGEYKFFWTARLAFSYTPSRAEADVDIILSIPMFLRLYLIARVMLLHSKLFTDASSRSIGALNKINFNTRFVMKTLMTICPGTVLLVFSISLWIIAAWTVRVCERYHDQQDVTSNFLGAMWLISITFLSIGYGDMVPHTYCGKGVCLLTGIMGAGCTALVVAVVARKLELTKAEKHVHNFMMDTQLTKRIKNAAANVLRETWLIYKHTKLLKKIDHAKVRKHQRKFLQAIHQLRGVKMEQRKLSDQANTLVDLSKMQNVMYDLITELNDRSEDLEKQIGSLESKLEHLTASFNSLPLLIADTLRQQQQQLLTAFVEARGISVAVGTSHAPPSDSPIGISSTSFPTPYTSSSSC
- PROTOCOL_DESCRIPTION: Inhibition of KCa2.3 in Sprague-Dawley rat superior cervical ganglion neurons assessed as inhibition of afterhyperpolarization by electrophysiological assay relative to UCL1848
Under this convention, Satisfied denotes EMR strictly below 5 and Not satisfied denotes EMR at or above 5.

molecule=O=C1CCNc2cc[n+](c3ccccc23)CCCCC[n+]2ccc(c3ccccc32)NCC1 label_value=Satisfied
molecule=Nc1ccc2c(c1)c1cc[n+]2Cc2cccc(c2)C[n+]2ccc(c3cc(N)ccc32)NCc2ccc(cc2)CN1 label_value=Satisfied
molecule=FC(F)(F)Oc1ccc2c(c1)c1cc[n+]2Cc2cccc(c2)C[n+]2ccc(c3cc(OC(F)(F)F)ccc32)NCc2ccc(cc2)CN1 label_value="Not satisfied"
molecule=CC1CC[n+]2ccc(c3ccccc32)NCCCCCNc2cc[n+](c3ccccc23)CC1 label_value=Satisfied
molecule=Clc1ccc2c(c1)c1cc[n+]2Cc2cccc(c2)C[n+]2ccc(c3cc(Cl)ccc32)NCc2ccc(cc2)CN1 label_value="Not satisfied"
molecule=c1ccc2c(c1)c1cc[n+]2CCCCC[n+]2ccc(c3ccccc32)NCCSCCN1 label_value="Not satisfied"
molecule=O=[N+]([O-])c1ccc2c(c1)c1cc[n+]2CCCCC[n+]2ccc(c3cc([N+](=O)[O-])ccc32)NCCCCCN1 label_value=Satisfied
molecule=Clc1ccc2c3cc[n+](c2c1)CCCCC[n+]1ccc(c2ccc(Cl)cc21)NCCCCCN3 label_value=Satisfied
molecule=c1ccc2c(c1)c1cc[n+]2CCC2(CC[n+]3ccc(c4ccccc43)NCCC3(CCN1)OCCO3)OCCO2 label_value="Not satisfied"
molecule=Oc1c2cccc1CNc1cc[n+](c3ccccc13)CCCCC[n+]1ccc(c3ccccc31)NC2 label_value="Not satisfied"
molecule=c1ccc2c(c1)c1cc[n+]2CCCCC[n+]2ccc(c3ccccc32)SCCCCCS1 label_value="Not satisfied"
molecule=C1=C\CNc2cc[n+](c3ccccc23)CCCCC[n+]2ccc(c3ccccc32)NC/1 label_value="Not satisfied"
molecule=Oc1c2cc(I)cc1CNc1cc[n+](c3ccccc13)CCCCC[n+]1ccc(c3ccccc31)NC2 label_value="Not satisfied"
molecule=Clc1cc(Cl)c2c3cc[n+](c2c1)CCCCC[n+]1ccc(c2c(Cl)cc(Cl)cc21)NCCCCCN3 label_value="Not satisfied"
molecule=c1ccc2c(c1)c1cc[n+]2CCSCC[n+]2ccc(c3ccccc32)NCCSCCN1 label_value="Not satisfied"
molecule=C1#CCNc2cc[n+](c3ccccc23)CCCCC[n+]2ccc(c3ccccc32)NC1 label_value="Not satisfied"
molecule=CN1CCCCCN(C)c2cc[n+](c3ccccc23)CCCCC[n+]2ccc1c1ccccc12 label_value="Not satisfied"
molecule=c1ccc2c(c1)c1cc[n+]2CCSCC[n+]2ccc(c3ccccc32)NCCOCCN1 label_value="Not satisfied"
molecule=COc1ccc2c(c1)c1cc[n+]2CCCCC[n+]2ccc(c3cc(OC)ccc32)NCCCCCN1 label_value=Satisfied
molecule=COc1c2cccc1CNc1cc[n+](c3ccccc13)CCCCC[n+]1ccc(c3ccccc31)NC2 label_value="Not satisfied"
molecule=FC1(F)CNc2cc[n+](c3ccccc23)CCCCC[n+]2ccc(c3ccccc32)NCC(F)(F)C1(F)F label_value="Not satisfied"
molecule=O=[N+]([O-])c1ccc2c(c1)c1cc[n+]2Cc2cccc(c2)C[n+]2ccc(c3cc([N+](=O)[O-])ccc32)NCc2ccc(cc2)CN1 label_value=Satisfied
molecule=c1ccc2c(c1)c1cc[n+]2CCOCC[n+]2ccc(c3ccccc32)NCCSCCN1 label_value="Not satisfied"
molecule="CC1CCNc2cc[n+](c3ccccc23)CCC(C)CC[n+]2ccc(c3ccccc32)NCC1 (stereo not given)" label_value=Satisfied
molecule=c1cc2cc(c1)C[n+]1ccc(c3ccccc31)NCC1CCC(CC1)CNc1cc[n+](c3ccccc13)C2 label_value=Satisfied
molecule=COc1ccc2c3cc[n+](c2c1)CCCCC[n+]1ccc(c2ccc(OC)cc21)NCCCCCN3 label_value=Satisfied
molecule=Oc1ccc2c(c1)c1cc[n+]2CCCCC[n+]2ccc(c3cc(O)ccc32)NCCCCCN1 label_value=Satisfied
molecule=c1ccc2c(c1)c1cc[n+]2CCCCC[n+]2ccc(c3ccccc32)NCC2CCC(CC2)CN1 label_value="Not satisfied"
molecule=Clc1ccc2c(c1)c1cc[n+]2CCCCC[n+]2ccc(c3cc(Cl)ccc32)NCCCCCN1 label_value=Satisfied
molecule=c1ccc(CN2CCCCCN(Cc3ccccc3)c3cc[n+](c4ccccc34)CCCCC[n+]3ccc2c2ccccc23)cc1 label_value="Not satisfied"
molecule=COc1ccc2c3cc[n+](c2c1)Cc1cccc(c1)C[n+]1ccc(c2ccc(OC)cc21)NCc1ccc(cc1)CN3 label_value=Satisfied
molecule=Clc1ccc2c3cc[n+](c2c1)Cc1cccc(c1)C[n+]1ccc(c2ccc(Cl)cc21)NCc1ccc(cc1)CN3 label_value="Not satisfied"
molecule=Clc1cc(Cl)c2c3cc[n+](c2c1)Cc1cccc(c1)C[n+]1ccc(c2c(Cl)cc(Cl)cc21)NCc1ccc(cc1)CN3 label_value="Not satisfied"

Hello, the source for this data is ChEMBL document CHEMBL2390924, in case you need it.
